Assignment: determine reported TGI for the given compounds.
System: 786-0 renal
Test: NCI tumour cell line growth inhibition, 48 h

// TGI lookup, compound = CCOC(=O)C1(C(=O)OCC)CCCN1C(=O)[C@H](CNC(=O)OC(C)(C)C)NC(=O)OCc1ccccc1 , result: > 100 µM

// TGI lookup, compound = CC(C)(C)OC(=O)C1C(=O)NC(=O)CC1C(COCc1ccccc1)OCc1ccccc1 (centres undefined) , result: 45.3 µM

// TGI lookup, compound = CC1=C[C@@H](C)C[C@]2(C)CC[C@H](O2)[C@]23CC[C@](C(=O)O)(C[C@H](O2)[C@@H]2O[C@@](C)(CC2=O)[C@@H](O)[C@H]2CC[C@@]4(CCC[C@@H](O4)[C@H](C)C(=O)O[C@H]4C[C@H]([C@]5(O)OCC[C@H](C)[C@@H]5O)O[C@H]4C=C1)O2)O3 , result: > 10 µM

// TGI lookup, compound = COC(=O)C1(Cc2ccc3c(c2)CCC3)Cc2cc3c(cc2C1)CCC3 , result: > 100 µM

====

System: BT-549 breast
Test: NCI tumour cell line growth inhibition, 48 h; in the data active = GI50 below about 0.43 µM; inactive = the rest
Select the correct class. Options are label 1 for active, label 0 for inactive and nothing else.

Hey, what did the test say about COc1ccc(Cc2cnc(NC(=O)c3ccc4c(c3)OCCO4)s2)cc1 ? label 1

Hey, what did the test say about COc1ccc(-c2csc(NC(=O)CSc3nc(C)c(-c4ccccc4)n3Nc3ccccc3)n2)cc1 ? label 0

Hey, what did the test say about Cc1c2ccncc2c(C)c2c1[nH]c1ccccc12 ? label 0

Hey, what did the test say about COc1ccc2c(c1)C(C)Cc1c(ncnc1-n1cnc3cc(C)ccc31)N2C (configuration not stated) ? label 1

Hey, what did the test say about C=C1CC[C@@H](C(C)C)C[C@@H]2[C@H]([C@H](O)C[C@]2(C)O)[C@@]2(C)CC[C@@H]1O2 ? label 0

Hey, what did the test say about COC(=O)CCC1=C(CC(=O)OC)C(C)=N/C1=C\c1[nH]c(-c2ccc[nH]2)cc1OC ? label 0

Hey, what did the test say about COC(C(=O)[C@@H](O)[C@@H](C)O)[C@@H]1Cc2cc3cc(O[C@H]4C[C@@H](O[C@H]5C[C@@H](O)[C@H](O)C(C)O5)[C@H](O)C(C)O4)c(C)c(O)c3c(O)c2C(=O)[C@H]1O[C@H]1C[C@@H](O[C@H]2C[C@@H](O[C@H]3C[C@@H](O)[C@H](OC)C(C)O3)[C@@H](O)C(C)O2)[C@H](O)C(C)O1 (some centres not stated) ? label 1

Hey, what did the test say about C/C(=N\NC(=S)N1CC2CCC(CC2)C1)c1ccccn1 ? label 1

Hey, what did the test say about O=C(CSC(c1ccccc1)c1ccccc1)N/N=C/c1ccco1 ? label 0

Hey, what did the test say about Clc1cc(Cl)cc(Nc2ccc3cc(OCCCN4CCOCC4)ccc3n2)c1 ? label 0

Hey, what did the test say about O=C(N/N=C/c1ccc([N+](=O)[O-])o1)c1ccc(O)cc1 ? label 0

Hey, what did the test say about O=c1oc2ccc(Br)cc2c(=O)n1-c1ccc(F)cc1F ? label 0

====

System: KM12 colon
Experiment: NCI tumour cell line growth inhibition, 48 h
measured quantity: TGI

// TGI lookup, molecule = Cc1cc2nc(-c3cc(C(C)(C)C)c(O)c(C(C)(C)C)c3)[nH]c2cc1C , result: > 28.8 µM

// TGI lookup, molecule = COc1cc(C(=O)C/C(CCC(=O)Nc2ccc(Cl)cc2Cl)=N/NC(=O)C(=O)NN)ccc1O , result: > 100 µM

// TGI lookup, molecule = S=C1SC2=Nc3ccccc3CN2C2=NCCN12 , result: > 100 µM

// TGI lookup, molecule = O=C(O)CC(NC(=O)/C(=C/c1ccccc1O)NC(=O)c1ccccc1)C(=O)O (centres undefined) , result: > 100 µM

// TGI lookup, molecule = COC(=O)[C@H](C)NC(=O)[C@H](CSC)N1C(=O)N[C@@H](C(C)C)C1=O , result: > 100 µM

// TGI lookup, molecule = N#CC(C(=O)CCC(=O)Nc1cccc(C(F)(F)F)c1)c1ccc(Cl)cc1 (centres undefined) , result: > 100 µM

// TGI lookup, molecule = CC(=O)OCCOCNC(=S)N/N=C/c1ccc(Br)s1 , result: > 100 µM

// TGI lookup, molecule = COC(C(=O)[C@@H](O)[C@@H](C)O)[C@@H]1Cc2cc3cc(O[C@H]4C[C@@H](O[C@H]5C[C@@H](O)[C@H](O)C(C)O5)[C@H](O)C(C)O4)c(C)c(O)c3c(O)c2C(=O)[C@H]1O[C@H]1C[C@@H](O[C@H]2C[C@@H](O[C@H]3C[C@@H](O)[C@H](OC)C(C)O3)[C@@H](O)C(C)O2)[C@H](O)C(C)O1 (some centres undefined) , result: > 33.3 µM

// TGI lookup, molecule = COC(=O)CCC1=C(CC(=O)OC)C(C)=N/C1=C\c1[nH]c(-c2ccc[nH]2)cc1OC , result: 15 µM

// TGI lookup, molecule = CCOC(=O)C1CN(C2CC2)CCC1=O (centres undefined) , result: > 100 µM

// TGI lookup, molecule = O=C(N/N=C/c1c(Cl)cccc1Cl)c1ccc(C(F)(F)F)nc1Nc1cccc(C(F)(F)F)c1 , result: > 30 µM

// TGI lookup, molecule = CC1=CC(=O)CC2(C)CCC(C(C)CC(=O)CC(C)C)CC12 (centres undefined) , result: 36.4 µM

// TGI lookup, molecule = CCCOC(=O)NC(C)C(=O)NC(CCC(=O)NC(CCCC(N)C(=O)O)C(=O)NC(C)C(=O)O)C(=O)O (centres undefined) , result: 27.4 µM

// TGI lookup, molecule = COc1cc(CC(C)N)ccc1O (centres undefined) , result: > 100 µM

// TGI lookup, molecule = O=C(CCc1cccc(O)c1)NCCCNC(=O)CCc1cccc(O)c1 , result: > 100 µM

// TGI lookup, molecule = COC(=O)c1cc(C)ccc1CC(Cc1ccc(C)cc1)C(=O)OC (centres undefined) , result: > 100 µM

// TGI lookup, molecule = O=C(N/N=C/c1ccc([N+](=O)[O-])o1)c1ccc(O)cc1 , result: > 100 µM

// TGI lookup, molecule = CC12CC1C(c1cccc([N+](=O)[O-])c1)(c1cccc([N+](=O)[O-])c1)N=N2 (centres undefined) , result: 47.3 µM

// TGI lookup, molecule = OC1(c2ccc(Cl)cc2)c2ccc(CN3CCCC3)cc2C2=NCCN21 (centres undefined) , result: 27.6 µM

====

Assignment: determine reported TGI for the given molecules.
Tested on: COLO 205 colon
Assay: NCI tumour cell line growth inhibition, 48 h

// TGI lookup, molecule = O=C1CCCc2cc3c(cc21)CC1(C3)Cc2ccc3c(c2C1)C(=O)CCC3 (stereo unspecified) , result: 34.9 µM

// TGI lookup, molecule = CC1(C)OC2CC(=O)OCC23C1CC(=O)C1(C)C3CCC2(C)C(c3ccoc3)OC(=O)C3OC321 (stereo unspecified) , result: > 125 µM

// TGI lookup, molecule = O=C(CCc1cccc(O)c1)NCCCNC(=O)CCc1cccc(O)c1 , result: > 100 µM

// TGI lookup, molecule = Cc1ccc(S(=O)(=O)NC(=O)NC2=NC(C)(C)N(c3ccc(Cl)c(Cl)c3)C(N)=N2)cc1 , result: > 100 µM

// TGI lookup, molecule = O=C1c2cccc(NCCNCCO)c2C(=O)c2cccc(NCCNCCO)c21 , result: 2.09 µM

// TGI lookup, molecule = OCC(O)CNc1ccnc2cc(Cl)ccc12 (stereo unspecified) , result: > 100 µM

====

Assignment: determine reported TGI for the given molecules.
Tested on: A498 renal
Assay: NCI tumour cell line growth inhibition, 48 h
Give a bare numeral; the unit µM is implied.

// TGI lookup, molecule = NC(=S)N/N=C/c1cc(-c2cccc(N)c2)ccn1 , result: 19.1

// TGI lookup, molecule = COc1cc(C2C(C(=O)Nc3cc(F)c(F)cc3F)=C(C)NC(C)=C2C(=O)Nc2cc(F)c(F)cc2F)ccc1O , result: 55.3

// TGI lookup, molecule = Cc1cccc(C(C)C)c1NC(=O)C(=O)C(C(=O)c1ccccc1F)C1OC(=O)c2ccccc21 (stereo not given) , result: 45.1

// TGI lookup, molecule = CC(C)C1=C2CCC3(C)C(CCC4C5C6OCC5(CCC6(C)C)CCC43C)C2(C)CC1 (stereo not given) , result: 36.7

// TGI lookup, molecule = O=C(CCCN1CCC2(CC1)C(=NC1CCCCC1)NC(=O)N2c1ccccc1)c1ccc(F)cc1 , result: 34.1

// TGI lookup, molecule = O=C(c1ccco1)C1CC(c2c(O)ccc3ccccc23)=NN1 (stereo not given) , result: 40.4

// TGI lookup, molecule = CC/C=C/C/C=C/C/C=C/C/C=C/C/C=C/C/C=C/CCC(=O)Nc1ccn([C@@H]2O[C@H](CO)[C@@H](O)C2(F)F)c(=O)n1 , result: 44.4

// TGI lookup, molecule = O=C(OCc1ccc2c(Cl)cc(Cl)c(O)c2n1)N1CCN(C(=O)c2cc3cc(F)ccc3[nH]2)CC1 , result: 5.48

// TGI lookup, molecule = Cc1c2ccncc2c(C)c2c1[nH]c1ccccc12 , result: 3.62

// TGI lookup, molecule = O=C(N/N=C/c1c(Cl)cccc1Cl)c1ccc(C(F)(F)F)nc1Nc1cccc(C(F)(F)F)c1 , result: 2.39
